# Tested on: RIVA
# method description: growth inhibition by drug plus 177Lu-lilotomab satetraxetan (1 - RLU/untreated control) (fraction); higher = stronger inhibition
# applied conditions: 100 nM; time (day): 5; 177Lu-lilotomab satetraxetan 0.5 ug/ml
Counter-ions that a name gives are not always drawn.
Criterion: growth inhibition by drug plus 177Lu-lilotomab satetraxetan meeting or surpassing 0.6. Met: label 1. Not met: label 0.

compound: CCN[C@H]1C[C@H](C)S(=O)(=O)c2sc(S(N)(=O)=O)cc21 [Dorzolamide HCL]
class label: label 0

compound: C=CC[C@@H]1/C=C(\C)C[C@H](C)C[C@H](OC)[C@H]2O[C@@](O)(C(=O)C(=O)N3CCCC[C@H]3C(=O)O[C@H](/C(C)=C/[C@@H]3CC[C@@H](O)[C@H](OC)C3)[C@H](C)[C@@H](O)CC1=O)[C@H](C)C[C@@H]2OC [FK-506 (Tacrolimus)]
class label: label 1

compound: Nc1ccccc1NC(=O)c1ccc(CNC(=O)OCc2cccnc2)cc1 [Entinostat (MS-275, SNDX-275)]
class label: label 1

compound: Oc1nc(-c2ccc(C(F)(F)F)cc2)nc2c1CSCC2
class label: label 0

compound: COc1cc2nc(N3CCCN(C)CC3)nc(NC3CCN(Cc4ccccc4)CC3)c2cc1OC
class label: label 0

compound: CNCc1ccc(-c2[nH]c3cc(F)cc4c3c2CCNC4=O)cc1
class label: label 0

compound: CCN(CC)CCCCNc1ncc2cc(-c3cc(OC)cc(OC)c3)c(NC(=O)NC(C)(C)C)nc2n1
class label: label 0

compound: O=C(Nc1ncc([N+](=O)[O-])s1)c1ccc([N+](=O)[O-])c(Cl)c1
class label: label 1

compound: Cc1nc(Nc2ncc(C(=O)Nc3c(C)cccc3Cl)s2)cc(N2CCN(CCO)CC2)n1
class label: label 1

compound: CC(C)Oc1cc(Nc2nc(N[C@@H](C)c3ccc(F)cn3)ncc2Cl)n[nH]1
class label: label 0

compound: CC(NC(=O)c1ccccc1/N=C/c1c(O)ccc2ccccc12)c1ccccc1 (stereo unspecified) [Sirtinol]
class label: label 0

compound: CC#C[C@]1(O)CC[C@H]2[C@@H]3CCC4=CC(=O)CCC4=C3[C@@H](c3ccc(N(C)C)cc3)C[C@@]21C [Mifepristone (Mifeprex)]
class label: label 0

compound: COc1ccc(CNC(=O)Nc2ncc([N+](=O)[O-])s2)cc1
class label: label 0

compound: Nc1ccccc1NC(=O)c1ccc(CNc2nccc(-c3cccnc3)n2)cc1 [Mocetinostat (MGCD0103)]
class label: label 1

compound: CC(C)C[C@H](NC(=O)CNC(=O)c1cc(Cl)ccc1Cl)B(O)O
class label: label 1

compound: Cc1cn(-c2cc(NC(=O)c3ccc(C)c(Nc4nccc(-c5cccnc5)n4)c3)cc(C(F)(F)F)c2)cn1 [Nilotinib (AMN-107)]
class label: label 0

compound: COc1cc2c(cc1O)CC[C@@H]1[C@@H]2CC[C@]2(C)[C@@H](O)CC[C@@H]12 [2-Methoxyestradiol]
class label: label 0

compound: CC[C@@H]1/C=C(\C)C[C@H](C)C[C@H](OC)[C@H]2O[C@@](O)(C(=O)C(=O)N3CCCC[C@H]3C(=O)O[C@H](/C(C)=C/[C@@H]3CC[C@H](Cl)[C@H](OC)C3)[C@H](C)[C@@H](O)CC1=O)[C@H](C)C[C@@H]2OC [Pimecrolimus]
class label: label 1

compound: Cn1cncc1[C@@](N)(c1ccc(Cl)cc1)c1ccc2c(c1)c(-c1cccc(Cl)c1)cc(=O)n2C [Tipifarnib (Zarnestra)]
class label: label 0

compound: CCN1CCN(Cc2ccc(-c3cc4c(N[C@H](C)c5ccccc5)ncnc4[nH]3)cc2)CC1
class label: label 0

compound: CC[C@]1(O)C[C@H]2CN(CCc3c([nH]c4ccccc34)[C@@](C(=O)OC)(c3cc4c(cc3OC)N(C=O)[C@H]3[C@@](O)(C(=O)OC)[C@H](OC(C)=O)[C@]5(CC)C=CCN6CC[C@]43[C@@H]65)C2)C1 [Vincristine]
class label: label 1

compound: Cc1cccc(-c2[nH]c(C(C)(C)C)nc2-c2ccc3nccnc3c2)n1
class label: label 0

compound: CN(C)CCOc1ccc(/C(=C(/CCCl)c2ccccc2)c2ccccc2)cc1 [Toremifene Citrate (Fareston, Acapodene)]
class label: label 1

compound: COc1ccc(-c2oc3cc(OC)ccc3c2C(=O)c2ccc(C#N)cc2)cc1
class label: label 0

compound: C[C@@H](N)[C@H]1CC[C@H](C(=O)Nc2ccncc2)CC1
class label: label 0

compound: N#CC1(c2ccc(NC(=O)c3cccnc3NCc3ccncc3)cc2)CCCC1 [Apatinib (YN968D1)]
class label: label 0

compound: CNC(=O)c1cc(Oc2ccc(NC(=O)Nc3cc(C(C)(C)C)nn3-c3ccc4ncccc4c3)c(F)c2)ccn1 [DCC-2036 (Rebastinib)]
class label: label 1

compound: Oc1ccc(Nc2nc(-c3ccc(Cl)cc3)cs2)cc1
class label: label 0
